Reported viability, T/C values for the following molecules.
# Tested on: 422866-222-R5-J1-PDC complex spheroids viability;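 further: spheroids exposed to compounds for 7 days; 100% = DMSO vehicle control viability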
# procedure_summary: Anticancer human tumor 422866-222-R5-J1-PDC patient-derived pancreatic adenocarcinoma cell line growth inhibition [RAS]
# test_parameters: second compound 0.0316 µM; first compound 1 µM; active compounds read low
API: value field is a number in %; no unit string.

Illustrative cases are given below, each with its answer.
NC1c2ccccc2OC12CCN(c1cnc3c(N4CCCc5ncccc54)n[nH]c3n1)CC2 (stereo not given) + C#Cc1c(F)ccc2cc(O)cc(-c3ncc4c(N5CC6CCC(C5)N6)nc(OCC56CCCN5CC(F)C6)nc4c3F)c12: 38.4
CC(Nc1ccc2c(c1)OCCn1cc(N3C(=O)OCC3C(F)F)nc1-2)C(N)=O (stereo not given) + C#Cc1c(F)ccc2cc(O)cc(-c3ncc4c(N5CC6CCC(C5)N6)nc(OCC56CCCN5CC(F)C6)nc4c3F)c12: 37.9
NC1c2ccccc2OC12CCN(c1cnc3c(N4CCCc5ncccc54)n[nH]c3n1)CC2 (stereo not given) + C=CC(=O)N1CCN(c2nc(OCC3CCCN3C)nc3c(F)c(-c4nc(N)cc(C)c4C(F)(F)F)c(Cl)cc23)C(C)C1: 14.5

Req: Give viability, T/C for the following molecule: CC(C)NCC(C(=O)N1CCN(c2ncnc3c2C(C)CC3O)CC1)c1ccc(Cl)cc1 (stereo not given) + C#Cc1c(F)ccc2cc(O)cc(-c3ncc4c(N5CC6CCC(C5)N6)nc(OCC56CCCN5CC(F)C6)nc4c3F)c12
Resp: 100

Req: Tell me viability, T/C reported for C[C@@H](NC(=O)c1ncnc(N)c1Cl)c1ncc(C(=O)Nc2cc(C(F)(F)F)c(Cl)cn2)s1 + C#Cc1c(F)ccc2cc(O)cc(-c3ncc4c(N5CC6CCC(C5)N6)nc(OCC56CCCN5CC(F)C6)nc4c3F)c12
Resp: 117

Req: Output viability, T/C of CC1(O)CCCC1n1c(=O)c(C(F)F)cc2cnc(NC3CCN(S(C)(=O)=O)CC3)nc21 (stereo not given) + C#Cc1c(F)ccc2cc(O)cc(-c3ncc4c(N5CC6CCC(C5)N6)nc(OCC56CCCN5CC(F)C6)nc4c3F)c12
Resp: 75.5

Req: Find the measured viability, T/C of Cc1nc(N2CCC3(CC2)COC(C)C3N)c(CO)nc1Sc1ccnc(N)c1Cl (stereo not given) + C#Cc1c(F)ccc2cc(O)cc(-c3ncc4c(N5CC6CCC(C5)N6)nc(OCC56CCCN5CC(F)C6)nc4c3F)c12 and report it.
Resp: 42.2

Req: Please supply the value of reported viability, T/C for the item Nc1ccn(C2OC(CO)C(O)C2(F)F)c(=O)n1 (stereo not given) + C=CC(=O)N1CCN(c2nc(OCC3CCCN3C)nc3c(F)c(-c4nc(N)cc(C)c4C(F)(F)F)c(Cl)cc23)C(C)C1
Resp: 14.1

Req: Entry C=CC(=O)Nc1cc(Nc2nccc(-c3cn(C)c4ccccc34)n2)c(OC)cc1N(C)CCN(C)C + C#Cc1c(F)ccc2cc(O)cc(-c3ncc4c(N5CC6CCC(C5)N6)nc(OCC56CCCN5CC(F)C6)nc4c3F)c12 needs its viability, T/C filled in; supply it.
Resp: 57.7

Req: Return value of viability, T/C for input CC(Nc1ccc2c(c1)OCCn1cc(N3C(=O)OCC3C(F)F)nc1-2)C(N)=O (stereo not given) + C=CC(=O)N1CCN(c2nc(OCC3CCCN3C)nc3c(F)c(-c4nc(N)cc(C)c4C(F)(F)F)c(Cl)cc23)C(C)C1 , no commentary.
Resp: 7.15

Values were extracted from PubChem BioAssay AID2060901.
